target-system: Man(a1-2)Man(a1-3)[Man(a1-2)Man(a1-6)]Man(a1-6)[Man(a1-2)Man(a1-2)Man(a1-3)]Man(b1-4)GlcNAc(b1-4)GlcNAc
method: glycan array binding signal (z-score within array); higher = stronger binding
protocol-conditions: glycan notation: IUPAC condensed, linker removed
Many of the other results were omitted from the sample, so the strongest signals are more common in it than they were.
Entries and their glycan array binding signal (z-score)
assay-readout: glycan array binding signal (z-score)

| binder | assay-readout | data-value |
| --- | --- | --- |
| DC-SIGN (Canis lupus), XP_853402 (protein) AGLCRPCPWKWELFQESCYFFSQTQNTWKESISACQNLRAQLVIINSTEEQKFLKSWNTRNNQRTWIGLSDHHNEGSWKWVDNTPLQLSFWKEGEPNNHGDEDCVELYSDGWNDNRCSTENFWICKKPSSPCPGPGLNDIFEAQKIEWHE | glycan array binding signal (z-score) | 4.83 |
| DCL-1 (Homo sapiens), Q8IX05 (protein) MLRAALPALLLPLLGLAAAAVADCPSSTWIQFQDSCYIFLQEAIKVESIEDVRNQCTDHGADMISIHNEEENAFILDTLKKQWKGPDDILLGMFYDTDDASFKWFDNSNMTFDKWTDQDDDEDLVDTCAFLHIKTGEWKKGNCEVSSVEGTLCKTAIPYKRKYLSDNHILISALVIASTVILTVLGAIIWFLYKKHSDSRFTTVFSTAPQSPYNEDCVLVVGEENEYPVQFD | glycan array binding signal (z-score) | 2.43 |
| DC-ASGPR Long (Homo sapiens) (protein) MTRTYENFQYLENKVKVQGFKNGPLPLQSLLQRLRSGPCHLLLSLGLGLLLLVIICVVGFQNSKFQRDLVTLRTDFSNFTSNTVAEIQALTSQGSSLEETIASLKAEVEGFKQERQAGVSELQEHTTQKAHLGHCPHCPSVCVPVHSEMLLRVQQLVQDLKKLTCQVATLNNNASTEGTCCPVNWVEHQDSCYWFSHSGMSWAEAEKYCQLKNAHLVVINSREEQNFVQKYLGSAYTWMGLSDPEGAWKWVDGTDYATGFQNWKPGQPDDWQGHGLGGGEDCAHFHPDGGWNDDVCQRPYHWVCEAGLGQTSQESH | glycan array binding signal (z-score) | -0.746 |
| XL-35 (Xenopus laevis) (protein) MLVHILLLLVTGGLSQSCDPVVIVASKNMVKQLDCDKFRNCKEIKDSNEEAQDGIYTLTSPDGISYQTFCDMTTNGGGWTLVASVHENNMAGKCTIGDRWSSQQGNRADYPEGDGNWANYNTFGSAGGATSDDYKNPGYYDIEAYNLGVWHVPNKTPLSVWRNSSLQRYRTTDGILFKHGGNLFSLYRIYPVKYGIGSCSKDSGPTVPVVYDLGSANLTASFYSPGFRSQFTPGYIQFRPINTEKAALALCPGMKMESCNVEHVCIGGGGYFPEADPRQCGDFAAYDFNGYGTKKFNSAGIEITEAAVLLFYL | glycan array binding signal (z-score) | -0.156 |
| ABA (Agaricus bisporus), Q00022 (protein) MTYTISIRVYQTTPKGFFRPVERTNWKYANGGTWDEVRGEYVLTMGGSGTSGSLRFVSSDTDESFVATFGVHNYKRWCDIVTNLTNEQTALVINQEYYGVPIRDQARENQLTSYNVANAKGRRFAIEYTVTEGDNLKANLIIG | glycan array binding signal (z-score) | 0.46 |
| Ficolin B (Rattus norvegicus), P57756 (protein) MVLGSAALFVLSLCVTELTLHAADTCPEVKVLDLEGSNKLTILQGCPGLPGALGPKGEAGAKGDRGESGLPGHPGKAGPTGPKGDRGEKGVRGEKGDTGPSQSCATGPRTCKELLTRGYFLTGWYTIYLPDCRPLTVLCDMDTDGGGWTVFQRRIDGTVDFFRDWTSYKQGFGSQLGEFWLGNDNIHALTTQGTNELRVDLADFDGNHDFAKYSSFQIQGEAEKYKLILGNFLGGGAGDSLTSQNNMLFSTKDQDNDQGSSNCAVRYHGAWWYSDCHTSNLNGLYLRGLHKSYANGVNWKSWKGYNYSYKVSEMKVRLI | glycan array binding signal (z-score) | -0.224 |
| EUL D1A second (Oryza sativa) (protein) GAATACTIGGVPVHTVRVFSAAGEDYCLTVRNGTACLAPKNPRDDYQHWIKDMRHSNKIRDEEGYPAFALVNKVTGEAIKHSTGQGHPVKLVPYNPEYQDESVLWTESKDVGKGFRCIRMVNNIYLNFDAFHGDKDHGGIHDGTEIVLWKWCEGDNQRWKILPWILEQKLISEEDLNSAVDHHHHHH | glycan array binding signal (z-score) | 1.93 |
| NPA (Narcissus pseudonarcissus), C0HM45 (protein) DNILYSGETLSPGEFLNNGRYVFIMQEDCNLVLYDVDKPIWATNTGGLDRRCHLSMQSDGNLVVYSPRNNPIWASNTGGENGNYVCVLQKDRNVVIYGTARWATGTNIH | glycan array binding signal (z-score) | 0.144 |
| DCAL1 (Homo sapiens), Q8IZS7 (protein) MVSNFFHVIQVFEKSATLISKTEHIGFVIYSWRKSTTHLGSRRKFAISIYLSEVSLQKYDCPFSGTSFVVFSLFLICAMAGDVVYADIKTVRTSPLELAFPLQRSVSFNFSTVHKSCPAKDWKVHKGKCYWIAETKKSWNKSQNDCAINNSYLMVIQDITAMVRFNI | glycan array binding signal (z-score) | 5.03 |
| SLLPI (Mus musculus), Q9D9X8 (protein) MGICMSMYTQVLVPVDADGDHHILWSRFYERWGSCFNPCAGLVNCLPPHSSALYLCHRMEARSRAPRRQLCPPGITWLALAYLLSCLLASSKAKVFSRCELAKEMHDFGLDGYRGYNLADWVCLAYYTSGFNTNAVDHEADGSTNNGIFQISSRRWCRTLASNGPNLCRIYCTDLLNNDLKDSIVCAMKIVQEPLGLGYWEAWRHHCQGRDLSDWVDGCDF | glycan array binding signal (z-score) | -0.652 |
| GSL-I (Griffonia simplicifolia) (protein) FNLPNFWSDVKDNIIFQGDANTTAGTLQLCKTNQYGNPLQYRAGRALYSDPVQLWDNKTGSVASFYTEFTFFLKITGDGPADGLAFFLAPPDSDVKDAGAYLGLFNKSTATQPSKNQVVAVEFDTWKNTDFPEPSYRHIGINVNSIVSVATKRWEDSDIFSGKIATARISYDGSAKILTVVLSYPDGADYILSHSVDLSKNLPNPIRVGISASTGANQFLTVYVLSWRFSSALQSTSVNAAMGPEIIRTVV | glycan array binding signal (z-score) | -0.033 |
